Target Or Test System: ErbB3 on rat Schwann cells (rat) (UniProt Q62799)
Sequence (Q62799 20-1339): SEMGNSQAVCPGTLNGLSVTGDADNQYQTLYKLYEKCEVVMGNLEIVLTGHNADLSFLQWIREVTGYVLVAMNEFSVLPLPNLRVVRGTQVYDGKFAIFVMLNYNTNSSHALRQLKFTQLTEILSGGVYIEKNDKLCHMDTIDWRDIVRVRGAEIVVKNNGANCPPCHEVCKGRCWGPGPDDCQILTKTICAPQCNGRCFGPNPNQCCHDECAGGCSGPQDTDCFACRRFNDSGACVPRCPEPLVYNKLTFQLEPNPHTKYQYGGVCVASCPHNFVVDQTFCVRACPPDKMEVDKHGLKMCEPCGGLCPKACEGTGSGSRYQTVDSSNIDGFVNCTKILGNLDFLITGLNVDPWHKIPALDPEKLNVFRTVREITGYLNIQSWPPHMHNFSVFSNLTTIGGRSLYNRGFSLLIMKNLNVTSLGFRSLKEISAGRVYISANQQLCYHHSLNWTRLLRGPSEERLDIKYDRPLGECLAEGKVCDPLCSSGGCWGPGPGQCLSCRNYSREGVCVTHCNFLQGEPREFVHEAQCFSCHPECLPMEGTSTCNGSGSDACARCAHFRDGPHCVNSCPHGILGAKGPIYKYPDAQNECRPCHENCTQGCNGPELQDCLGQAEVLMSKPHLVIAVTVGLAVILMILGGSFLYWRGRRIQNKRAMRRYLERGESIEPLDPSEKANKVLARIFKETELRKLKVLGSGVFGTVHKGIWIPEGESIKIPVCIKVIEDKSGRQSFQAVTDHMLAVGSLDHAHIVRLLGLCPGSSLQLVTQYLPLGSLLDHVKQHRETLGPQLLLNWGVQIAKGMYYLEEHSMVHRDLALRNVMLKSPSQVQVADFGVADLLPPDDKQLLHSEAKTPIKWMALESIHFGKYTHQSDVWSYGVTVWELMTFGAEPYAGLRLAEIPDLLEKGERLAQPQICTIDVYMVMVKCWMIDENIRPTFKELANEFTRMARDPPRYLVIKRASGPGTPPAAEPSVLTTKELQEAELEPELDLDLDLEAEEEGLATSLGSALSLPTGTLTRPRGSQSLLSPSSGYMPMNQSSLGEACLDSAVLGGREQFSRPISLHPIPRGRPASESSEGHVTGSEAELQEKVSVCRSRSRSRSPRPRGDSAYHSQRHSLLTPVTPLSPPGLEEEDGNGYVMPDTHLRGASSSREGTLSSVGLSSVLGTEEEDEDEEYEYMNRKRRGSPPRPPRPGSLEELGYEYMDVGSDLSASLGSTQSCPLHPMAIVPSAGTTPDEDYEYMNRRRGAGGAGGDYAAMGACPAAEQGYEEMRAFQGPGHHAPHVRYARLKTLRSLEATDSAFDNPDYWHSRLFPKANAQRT
Procedure Details: cell-based or functional assay
Attribute Measured: Schwann cells (SC) (ErbB3) Avg EC50

Below: 2 binders and their reported Schwann cells (SC) (ErbB3) Avg EC50.
Give the value of Schwann cells (SC) (ErbB3) Avg EC50 reported for the following: huNRG1(S177-Q237)(NRGE1A)::GG::huFcSEFL2 (Pb) (Fc fusion) SHLVKCAENDKSFCVNGGECFMIEGPSNPSRYLCKCPNEFTGDRCQEDFMASFYKAEELYQGGDKTHTCPPCPAPELLGGPSVFLFPPKPKDTLMISRTPEVTCVVVDVSHEDPEVKFNWYVDGVEVHNAKTKPCEEQYGSTYRCVSVLTVLHQDWLNGKEYKCKVSNKALPAPIEKTISKAKGQPREPQVYTLPPSREEMTKNQVSLTCLVKGFYPSDIAVEWESNGQPENNYKTTPPVLDSDGSFFLYSKLTVDKSRWQQGNVFSCSVMHEALHNHYTQKSLSLSPGK > 10 µM

Give the value of Schwann cells (SC) (ErbB3) Avg EC50 reported for the following: huNRG1(S177-Q237)(3D6)::GG::huFcSEFL2 (Pb) (Fc fusion) SHLVKCGESDKSFCVNGGECFVIEGSSIPSRFLCKCPNEFTGDRCQDFFMASFYKAEELYQGGDKTHTCPPCPAPELLGGPSVFLFPPKPKDTLMISRTPEVTCVVVDVSHEDPEVKFNWYVDGVEVHNAKTKPCEEQYGSTYRCVSVLTVLHQDWLNGKEYKCKVSNKALPAPIEKTISKAKGQPREPQVYTLPPSREEMTKNQVSLTCLVKGFYPSDIAVEWESNGQPENNYKTTPPVLDSDGSFFLYSKLTVDKSRWQQGNVFSCSVMHEALHNHYTQKSLSLSPGK > 10 µM

***
Give the value of Schwann cells (SC) (ErbB3) Avg EC50 reported for the following: huNRG1(S177-Q237)(3G9)::GG::huFcSEFL2 (Pb) (Fc fusion) SHLVKCGESHKSFCVNGGECFMVEDLSNPSRFLCKCPNEFTGDRCQKDFMASFYKAEELYQGGDKTHTCPPCPAPELLGGPSVFLFPPKPKDTLMISRTPEVTCVVVDVSHEDPEVKFNWYVDGVEVHNAKTKPCEEQYGSTYRCVSVLTVLHQDWLNGKEYKCKVSNKALPAPIEKTISKAKGQPREPQVYTLPPSREEMTKNQVSLTCLVKGFYPSDIAVEWESNGQPENNYKTTPPVLDSDGSFFLYSKLTVDKSRWQQGNVFSCSVMHEALHNHYTQKSLSLSPGK > 10 µM
